Test system: HCI-024 (organoid from a breast cancer xenograft)
procedure_text: CTG-3D luminescence at 96 h relative to day-0 seeding control (ratio to day 0); higher = more growth / less cytotoxicity; PDxO 3D drug screen, 96 h, CTG-3D normalised to day-0 seeding control.
test_parameters: 12.5 pM; days in culture: 122
attribute_measured: CTG-3D luminescence at 96 h

1) Cc1cc(Nc2ncc(Cl)c(Nc3ccccc3S(=O)(=O)C(C)C)n2)c(OC(C)C)cc1C1CCNCC1 ... 1.49
2) COc1cccc2c1C(=O)c1c(O)c3c(c(O)c1C2=O)C[C@@](O)(C(=O)CO)C[C@@H]3O[C@H]1C[C@H](N)[C@H](O)[C@H](C)O1 ... 2.06
3) O=C(/C=C/c1cccnc1)NCCCCC1CCN(C(=O)c2ccccc2)CC1 ... 2.43
4) C=CC(=O)N1CCC[C@@H](n2nc(-c3ccc(Oc4ccccc4)cc3)c3c(N)ncnc32)C1 ... 2.18

---

Test system: MDA-MB-231
procedure_text: CTG-3D luminescence at 96 h relative to day-0 seeding control (ratio to day 0); higher = more growth / less cytotoxicity; PDxO 3D drug screen, 96 h, CTG-3D normalised to day-0 seeding control.
test_parameters: 12.5 pM
attribute_measured: CTG-3D luminescence at 96 h

1) C/C=C1\NC(=O)[C@H]2CSSCC/C=C/[C@H](CC(=O)N[C@H](C(C)C)C(=O)N2)OC(=O)[C@H](C(C)C)NC1=O ... 3.87
2) C[C@@H]1COCCN1c1cc(C2([S@](C)(=N)=O)CC2)nc(-c2cc[nH]c3nccc2-3)n1 ... 4.45
3) C=CC(=O)N1CCC[C@@H](n2nc(-c3ccc(Oc4ccccc4)cc3)c3c(N)ncnc32)C1 ... 4.49
4) Nc1ccn([C@@H]2O[C@H](CO)[C@@H](O)C2(F)F)c(=O)n1 ... 4.42
5) CCN1CCN(Cc2ccc(Nc3ncc(F)c(-c4cc(F)c5nc(C)n(C(C)C)c5c4)n3)nc2)CC1 ... 4.61

---

System: HCI-011.E2 (organoid from an ER-positive breast cancer xenograft)
procedure_text: CTG-3D luminescence at 96 h relative to day-0 seeding control (ratio to day 0); higher = more growth / less cytotoxicity; PDxO 3D drug screen, 96 h, CTG-3D normalised to day-0 seeding control.
test_parameters: 0.005 µM
attribute_measured: CTG-3D luminescence at 96 h

1) Cc1cc(Nc2ncc(Cl)c(Nc3ccccc3S(=O)(=O)C(C)C)n2)c(OC(C)C)cc1C1CCNCC1 [ceritinib] ... 1.37
2) CCc1c2c(nc3ccc(O)cc13)-c1cc3c(c(=O)n1C2)COC(=O)[C@]3(O)CC [SN-38] ... 1.4
3) CCN(c1cc(C#CCN2CCOCC2)cc(C(=O)NCc2c(C)cc(C)[nH]c2=O)c1C)[C@H]1CC[C@H](N(C)CCOC)CC1 ... 1.48
4) O=C(c1ccc(F)c(F)c1Nc1ccc(I)cc1F)N1CC(O)([C@@H]2CCCCN2)C1 [cobimetinib] ... 1.54
5) CC1(C)CCC(c2ccc(Cl)cc2)=C(CN2CCN(c3ccc(C(=O)NS(=O)(=O)c4ccc(N[C@H](CCN5CCOCC5)CSc5ccccc5)c(S(=O)(=O)C(F)(F)F)c4)cc3)CC2)C1 [navitoclax] ... 1.33
6) O=C(/C=C/c1cccnc1)NCCCCC1CCN(C(=O)c2ccccc2)CC1 [FK866] ... 1.37
7) CN(Cc1cnc2nc(N)nc(N)c2n1)c1ccc(C(=O)N[C@@H](CCC(=O)O)C(=O)O)cc1 [methotrexate] ... 1.44

---

Test system: HCI-002 (organoid from a triple-negative breast cancer xenograft)
procedure_text: CTG-3D luminescence at 96 h relative to day-0 seeding control (ratio to day 0); higher = more growth / less cytotoxicity; PDxO 3D drug screen (set 2), 96 h, CTG-3D normalised to day-0 seeding control.
test_parameters: 0.1 µM; days in culture: 127
CTG-3D luminescence at 96 h by entry:
attribute_measured: CTG-3D luminescence at 96 h

1) O=C(c1cc(Cc2n[nH]c(=O)c3ccccc23)ccc1F)N1CCN(C(=O)C2CC2)CC1 ... 2.97
2) CC(C)n1nc(-c2ccc3oc(N)nc3c2)c2c(N)ncnc21 ... 1.76
3) Nc1cc(C(F)(F)F)c(-c2cc(N3CCOCC3)nc(N3CCOCC3)n2)cn1 ... 3.16
4) CO[C@H]1C[C@@H]2CC[C@@H](C)[C@@](O)(O2)C(=O)C(=O)N2CCCC[C@H]2C(=O)O[C@H]([C@H](C)C[C@@H]2CC[C@@H](O)[C@H](OC)C2)CC(=O)[C@H](C)/C=C(\C)[C@@H](O)[C@@H](OC)C(=O)[C@H](C)C[C@H](C)/C=C/C=C/C=C/1C ... 2.24
5) CC(=O)O[C@@]12CO[C@@H]1C[C@H](O)[C@@]1(C)C(=O)[C@H](O)C3=C(C)[C@@H](OC(=O)[C@H](O)[C@@H](NC(=O)OC(C)(C)C)c4ccccc4)C[C@@](O)([C@@H](OC(=O)c4ccccc4)[C@H]21)C3(C)C ... 0.428
6) CCOc1ccn(-c2ccc(F)cc2)c(=O)c1C(=O)Nc1ccc(Oc2ccnc(N)c2Cl)c(F)c1 ... 3.28

---

Tested on: HCI-012 (organoid from a breast cancer xenograft)
procedure_text: CTG-3D luminescence at 96 h relative to day-0 seeding control (ratio to day 0); higher = more growth / less cytotoxicity; PDxO 3D drug screen, 96 h, CTG-3D normalised to day-0 seeding control.
test_parameters: 10 µM; days in culture: 162
attribute_measured: CTG-3D luminescence at 96 h

1. Cc1nc(-c2cn3c(n2)-c2ccc(-c4cnn(C(C)(C)C(N)=O)c4)cc2OCC3)n(C(C)C)n1 ... 0.703
2. CC(=O)O[C@H]1C(=O)[C@@]2(C)[C@H]([C@H](OC(=O)c3ccccc3)[C@]3(O)C[C@H](OC(=O)[C@H](O)[C@@H](NC(=O)c4ccccc4)c4ccccc4)C(C)=C1C3(C)C)[C@]1(OC(C)=O)CO[C@@H]1C[C@@H]2O ... 1.14
3. NC1(C(=O)N[C@@H](CCO)c2ccc(Cl)cc2)CCN(c2nc[nH]c3nccc2-3)CC1 ... 1.15
4. C[C@H](NC(=O)CCC(F)(F)F)C(=O)N[C@@H]1C(=O)N(CCO)c2ncccc2-c2ccccc21 ... 2.96

---

Test system: HCI-001 (organoid from a triple-negative breast cancer xenograft)
procedure_text: CTG-3D luminescence at 96 h relative to day-0 seeding control (ratio to day 0); higher = more growth / less cytotoxicity; PDxO 3D drug screen, 96 h, CTG-3D normalised to day-0 seeding control.
test_parameters: 100 µM; days in culture: 327
Items are presented alongside their recorded CTG-3D luminescence at 96 h.
attribute_measured: CTG-3D luminescence at 96 h

1. CS(=O)(=O)c1ccc(C(=O)Nc2ccc(Cl)c(-c3ccccn3)c2)c(Cl)c1 ... 1.19
2. CC(C)(C(=O)NCC(F)(F)C(F)(F)F)C(=O)N[C@@H]1C(=O)Nc2ccccc2-c2ccccc21 ... 1.38
3. NC1(C(=O)N[C@@H](CCO)c2ccc(Cl)cc2)CCN(c2nc[nH]c3nccc2-3)CC1 ... 0.71
4. CC(C)n1nc(-c2ccc3oc(N)nc3c2)c2c(N)ncnc21 ... 0.111
5. CC1(C)CCC(c2ccc(Cl)cc2)=C(CN2CCN(c3ccc(C(=O)NS(=O)(=O)c4ccc(N[C@H](CCN5CCOCC5)CSc5ccccc5)c(S(=O)(=O)C(F)(F)F)c4)cc3)CC2)C1 ... -0.168
6. CCN(c1cc(C#CCN2CCOCC2)cc(C(=O)NCc2c(C)cc(C)[nH]c2=O)c1C)[C@H]1CC[C@H](N(C)CCOC)CC1 ... 2.14
7. NC(=O)c1cccc2cn(-c3ccc([C@@H]4CCCNC4)cc3)nc12 ... -0.186

---

System: HCI-002
procedure_text: CTG-3D luminescence at 96 h relative to day-0 seeding control (ratio to day 0); higher = more growth / less cytotoxicity; PDxO 3D drug screen, 96 h, CTG-3D normalised to day-0 seeding control.
test_parameters: 625 fM; days in culture: 209
attribute_measured: CTG-3D luminescence at 96 h

1) C/C=C1\NC(=O)[C@H]2CSSCC/C=C/[C@H](CC(=O)N[C@H](C(C)C)C(=O)N2)OC(=O)[C@H](C(C)C)NC1=O ... 2.84
2) NC(=O)c1cccc2cn(-c3ccc([C@@H]4CCCNC4)cc3)nc12 ... 2.86
3) O=C(/C=C/c1cccnc1)NCCCCC1CCN(C(=O)c2ccccc2)CC1 ... 2.4
4) CC(C)(C(=O)NCC(F)(F)C(F)(F)F)C(=O)N[C@@H]1C(=O)Nc2ccccc2-c2ccccc21 ... 2.4

---

Test system: HCI-015 (organoid from a triple-negative breast cancer xenograft)
procedure_text: CTG-3D luminescence at 96 h relative to day-0 seeding control (ratio to day 0); higher = more growth / less cytotoxicity; PDxO 3D drug screen, 96 h, CTG-3D normalised to day-0 seeding control.
test_parameters: 625 fM; days in culture: 218
We begin with a simple list: items and their reported CTG-3D luminescence at 96 h.
attribute_measured: CTG-3D luminescence at 96 h

1) CC(C)n1nc(-c2ccc3oc(N)nc3c2)c2c(N)ncnc21 [sapanisertib] ... 1.77
2) C=CC(=O)N1CCC[C@@H](n2nc(-c3ccc(Oc4ccccc4)cc3)c3c(N)ncnc32)C1 [ibrutinib] ... 1.81
3) CS(=O)(=O)c1ccc(C(=O)Nc2ccc(Cl)c(-c3ccccn3)c2)c(Cl)c1 [vismodegib] ... 2
4) C/C=C1\NC(=O)[C@H]2CSSCC/C=C/[C@H](CC(=O)N[C@H](C(C)C)C(=O)N2)OC(=O)[C@H](C(C)C)NC1=O [romidepsin] ... 2.07
5) O=C(/C=C/c1cccnc1)NCCCCC1CCN(C(=O)c2ccccc2)CC1 [FK866] ... 1.86
6) CNC(=O)c1cccc(-c2ccc3c(N4CCOC[C@@H]4C)nc(N4CCOC[C@@H]4C)nc3n2)c1 [vistusertib] ... 2.18
7) C=CCn1c(=O)c2cnc(Nc3ccc(N4CCN(C)CC4)cc3)nc2n1-c1cccc(C(C)(C)O)n1 [adavosertib] ... 1.82
8) O=C(c1ccc(F)c(F)c1Nc1ccc(I)cc1F)N1CC(O)([C@@H]2CCCCN2)C1 [cobimetinib] ... 1.64

Entry source: the supplement of paper PMC8882468
